# System Tested: NAMPT (Homo sapiens)
# Sequence (P43490 whole entry): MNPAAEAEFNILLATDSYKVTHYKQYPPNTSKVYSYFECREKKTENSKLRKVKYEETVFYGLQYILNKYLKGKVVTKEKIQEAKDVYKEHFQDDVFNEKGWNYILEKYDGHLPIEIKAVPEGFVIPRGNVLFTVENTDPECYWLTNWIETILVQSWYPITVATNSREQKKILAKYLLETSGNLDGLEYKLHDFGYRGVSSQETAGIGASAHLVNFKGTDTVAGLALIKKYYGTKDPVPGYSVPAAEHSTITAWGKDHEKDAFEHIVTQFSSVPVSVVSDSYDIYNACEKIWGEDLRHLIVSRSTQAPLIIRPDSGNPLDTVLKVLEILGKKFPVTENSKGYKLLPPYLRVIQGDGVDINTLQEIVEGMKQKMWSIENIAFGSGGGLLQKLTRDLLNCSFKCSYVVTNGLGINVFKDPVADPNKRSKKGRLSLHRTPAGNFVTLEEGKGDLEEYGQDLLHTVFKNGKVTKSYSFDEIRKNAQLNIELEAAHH
# Protocol Description: NAMPT activity assay by fluorescence of NMN derivative (HTS system), IC50 determination
# Assay type: biochemical
# Parameters: His-tag; made in house; host or cells: E. coli BL21-CodonPlus (DE3)-RIL
# Recorded Conditions: recombinant human NAMPT, mean ± s.e.; read-out: NAMPT IC50
pIC50: −log10 of the molar value.
Assay Metric: pIC50

O=S(=O)(NCc1ccccc1)c1ccc(NC(=S)NCc2cccnc2)cc1
7.71
O=S(=O)(Nc1ccccc1)c1ccc(NC(=S)NCc2cccnc2)cc1
7.66
O=S(=O)(c1ccc(NC(=S)NCc2cccnc2)cc1)N1CCN(Cc2ccc(Br)cc2)CC1
7.62
Cc1ccc2oc(=O)n(CCC(N)=NOC(=O)c3ccccc3)c2c1
6.07
O=S(=O)(c1ccc(NC(=S)NCc2cccnc2)cc1)N1CCN(Cc2nc3ccccc3[nH]2)CC1
7.85
O=S(=O)(c1ccc(NC(=S)NCc2cccnc2)cc1)N1CCN(Cc2ccccc2Cl)CC1
7.80
O=S(=O)(c1ccc(NC(=S)NCc2cccnc2)cc1)N1CCN(Cc2cccc(Cl)c2)CC1
7.90
O=S(=O)(c1ccc(NC(=S)NCc2cccnc2)cc1)N1CCN(c2ccccn2)CC1
7.75
O=[N+]([O-])c1ccc(CN2CCN(S(=O)(=O)c3ccc(NC(=S)NCc4cccnc4)cc3)CC2)cc1
7.71
